Test system: Candida parapsilosis
test_summary: Antifungal activity against Candida parapsilosis
Assay type: functional
readout: MIC

[[record]]
molecule = "C#CCN(Cc1ccc([N+](=O)[O-])cc1)CC(O)(Cn1cncn1)c1ccc(F)cc1F (stereo not given)"
endpoint_result = "0.24 to 250 ng/mL"

[[record]]
molecule = "C#CCN(Cc1cccc(C#N)c1)CC(O)(Cn1cncn1)c1ccc(F)cc1F (stereo not given)"
endpoint_result = "0.24 to 250 ng/mL"

[[record]]
molecule = "C#CCN(Cc1ccc(F)cc1)CC(O)(Cn1cncn1)c1ccc(F)cc1F (stereo not given)"
endpoint_result = "0.24 to 250 ng/mL"

[[record]]
molecule = "C#CCN(Cc1ccc(Cl)cc1)CC(O)(Cn1cncn1)c1ccc(F)cc1F (stereo not given)"
endpoint_result = "0.24 to 250 ng/mL"

[[record]]
molecule = "C#CCN(Cc1cccc([N+](=O)[O-])c1)CC(O)(Cn1cncn1)c1ccc(F)cc1F (stereo not given)"
endpoint_result = "0.24 to 250 ng/mL"

[[record]]
molecule = "C#CCN(Cc1c(Cl)cccc1Cl)CC(O)(Cn1cncn1)c1ccc(F)cc1F (stereo not given)"
endpoint_result = "0.24 to 250 ng/mL"

[[record]]
molecule = "C#CCN(Cc1cccc(F)c1)CC(O)(Cn1cncn1)c1ccc(F)cc1F (stereo not given)"
endpoint_result = "0.24 to 250 ng/mL"

[[record]]
molecule = "C#CCN(Cc1ccc(Cl)cc1Cl)CC(O)(Cn1cncn1)c1ccc(F)cc1F (stereo not given)"
endpoint_result = "0.24 to 250 ng/mL"

[[record]]
molecule = "C#CCN(Cc1ccccc1Br)CC(O)(Cn1cncn1)c1ccc(F)cc1F (stereo not given)"
endpoint_result = "0.24 to 250 ng/mL"

[[record]]
molecule = "C#CCN(Cc1cccc(Br)c1)CC(O)(Cn1cncn1)c1ccc(F)cc1F (stereo not given)"
endpoint_result = "0.24 to 250 ng/mL"

